target: Amine oxidase [flavin-containing] A (Homo sapiens); test: Inhibition of recombinant human MAOA at 50 uM using p-tyramine as substrate preincubated for 15 mins followed by substrate addition measured after 15 mins by Amplex red reagent based fluorescence assay; conditions: 0.25 h
Sequence (P21397 whole entry): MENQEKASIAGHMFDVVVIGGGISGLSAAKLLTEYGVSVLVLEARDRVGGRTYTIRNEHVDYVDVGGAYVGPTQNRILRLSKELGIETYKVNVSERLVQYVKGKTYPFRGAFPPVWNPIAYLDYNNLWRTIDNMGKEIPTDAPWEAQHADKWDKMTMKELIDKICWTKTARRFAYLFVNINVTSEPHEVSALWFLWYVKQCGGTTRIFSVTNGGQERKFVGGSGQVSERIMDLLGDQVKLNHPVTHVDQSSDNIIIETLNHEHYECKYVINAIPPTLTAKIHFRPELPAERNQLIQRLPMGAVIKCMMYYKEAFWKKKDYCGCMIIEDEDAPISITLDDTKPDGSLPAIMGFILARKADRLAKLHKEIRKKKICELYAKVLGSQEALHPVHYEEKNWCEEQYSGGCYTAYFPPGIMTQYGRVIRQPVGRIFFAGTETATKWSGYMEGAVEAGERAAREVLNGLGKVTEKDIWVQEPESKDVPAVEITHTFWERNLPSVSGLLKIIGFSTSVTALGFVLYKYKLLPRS
PROPERTY MEASURED: inhibition at 50 µM (%)
All answers are understood in %, so give the number only.

Examples with their reported inhibition at 50 µM follow.
C#CCN(C)Cc1cn(-c2cc(NC(=S)NCC)ncn2)cn1 :: 20.2
C#CCN(CC)Cc1cn(-c2cc(NC(=S)NCC)ncn2)cn1 :: 6.71
C#CCN(CC#N)Cc1cn(-c2cc(NC(=S)NCC)ncn2)cn1 :: 2.01
C#CCNCCCc1cn(-c2cc(NC(=S)NCC)ncn2)cn1 :: 31.4
C#CCNCCc1cn(-c2cc(NC(=S)NCC)ncn2)cn1 :: 54.2
C#CCN(Cc1ccccc1)Cc1cn(-c2cc(NC(=S)NCC)ncn2)cn1 :: 17.8

*Q* Item C#CCN(CCCC)Cc1cn(-c2cc(NC(=S)NCC)ncn2)cn1 : provide inhibition at 50 µM
*A* 2.43

*Q* Query inhibition at 50 µM for C#CCN(CC#C)Cc1cn(-c2cc(NC(=S)NCC)ncn2)cn1
*A* 15.5

*Q* Input C#CCN1CCN(Cc2cn(-c3cc(NC(=S)NCC)ncn3)cn2)CC1 , output reported inhibition at 50 µM.
*A* 9.22

*Q* Report inhibition at 50 µM for C#CCN(CCC)Cc1cn(-c2cc(NC(=S)NCC)ncn2)cn1
*A* 1.76

*Q* Name the recorded inhibition at 50 µM of the item C#CCN(Cc1cn(-c2cc(NC(=S)NCC)ncn2)cn1)C(C)=O in your answer.
*A* 4.83

* * *

Below, each of the compounds is paired with its reported IC50 value.
Target: Acetylcholinesterase (Rattus norvegicus)
Sequence (P37136 whole entry): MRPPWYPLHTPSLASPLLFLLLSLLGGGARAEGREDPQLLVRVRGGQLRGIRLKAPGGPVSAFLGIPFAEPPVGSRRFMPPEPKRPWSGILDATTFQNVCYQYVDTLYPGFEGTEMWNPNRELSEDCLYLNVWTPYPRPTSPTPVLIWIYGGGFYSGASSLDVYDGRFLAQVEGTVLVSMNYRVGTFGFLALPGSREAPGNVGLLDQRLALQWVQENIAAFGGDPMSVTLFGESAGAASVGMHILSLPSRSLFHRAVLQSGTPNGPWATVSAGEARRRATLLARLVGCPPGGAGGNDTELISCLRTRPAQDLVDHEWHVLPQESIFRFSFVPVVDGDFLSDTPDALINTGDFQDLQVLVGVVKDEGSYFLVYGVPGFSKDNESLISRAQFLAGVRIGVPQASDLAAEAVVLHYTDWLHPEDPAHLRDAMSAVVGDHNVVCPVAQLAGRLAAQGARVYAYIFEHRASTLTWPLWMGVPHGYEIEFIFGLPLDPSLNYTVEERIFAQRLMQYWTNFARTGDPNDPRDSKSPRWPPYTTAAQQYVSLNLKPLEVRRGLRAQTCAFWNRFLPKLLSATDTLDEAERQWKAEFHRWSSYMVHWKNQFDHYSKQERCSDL
Field format: number, assumed nM, no unit text.

// below: answered compounds
C#CCN(CC#C)Cc1cn(-c2cc(NC(=S)NCC)ncn2)cn1 :: 718
C#CCNCCc1cn(-c2cc(NC(=S)NCC)ncn2)cn1 :: 228
C#CCN(C)CCCc1cn(-c2cc(NC(=S)NCC)ncn2)cn1 :: 459

*Q* Provide Acetylcholinesterase (Rattus norvegicus) IC50 reading for C#CCN(CC#N)CCc1cn(-c2cc(NC(=S)NCC)ncn2)cn1 .
*A* 597

*Q* # return IC50 for C#CCN(C)CCc1cn(-c2cc(NC(=S)NCC)ncn2)cn1 , test system: Acetylcholinesterase (Rattus norvegicus)
*A* 392
